Test system: DU-145
experimentDescription: NCI tumour cell line growth inhibition, 48 h
The source made the active and inactive calls. Rule as the data show it: active = GI50 up to about 1.1 µM and inactive = higher.
The following compounds are shown together with reported GI50 values.

Some entries whose results are on file:
{"compound": "O=C1c2ccccc2C(=O)c2c(NC(=O)C(Cl)CCl)cccc21 (configuration not stated)", "GI50": "7.38 µM (inactive)"}
{"compound": "COc1ccc(OC)c2c1ccc1c(C)c3ccccc3c(C)c12", "GI50": "> 100 µM (inactive)"}
{"compound": "COc1cc(NS(C)(=O)=O)ccc1NCc1c[nH]c2ccc3nc(C)ccc3c12", "GI50": "32.1 µM (inactive)"}
{"compound": "CC(C)(C)OC(=O)NC1CCCC1C(=O)C1=CCCC1 (configuration not stated)", "GI50": "> 100 µM (inactive)"}
{"compound": "CC[C@]1(Cc2ccc(OC)c(OC)c2)C=[N+]([O-])O[C@H](OC2CCCC2(c2ccccc2)c2ccccc2)[C@@H]1OC(=O)c1ccccc1 (some centres not stated)", "GI50": "10.6 µM (inactive)"}

# next compound below
Given the entry O=C1Cc2c([nH]c3c(Cl)cccc23)-c2ccccc2N1 , report its measured GI50. > 100 µM (inactive)
